# System: TRPC4 beta (transient receptor potential cation channel C4), mouse
# test.name: TRPC4 cation channel opening, retest – cell-based, Fluo4 calcium, HEK293 TRPC4beta/mu-opioid, duplicates, 10 µM, confirmation (AID 2426)
# condition.details: Fluo4 calcium fluorescence, at 10 µM
Activity calls are given as the source filed them.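 How the source made its calls: active means fluorescence ratio normalized to control raised more than 50% in primary screen plus both repeat runs; inactive means the rest.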
I would appreciate it if you answered using one of these outcomes: active, inactive

### Prompt Given "Cc1cccn2c(=O)c3cc(C(=O)N(C)C)n(C)c3nc12" , state the outcome it received in this test.
### Response inactive

### Prompt Hey, what did the test say about "C/C(=N\NC(=O)COc1ccc(C)cc1C(C)C)c1ccc(-n2ccnc2)cc1" ?
### Response inactive

### Prompt Please state the recorded outcome for this compound: "O=C(c1ccccc1)c1coc2ccc(O)c(CN3CCOCC3)c12"
### Response inactive

### Prompt How did this test come out for "COc1ccc(CCn2c(N)c(C#N)c3nc4ccccc4nc32)cc1OC" ?
### Response inactive

----------
# tested.system: Short transient receptor potential channel 4 (Mus musculus) (UniProt Q9QUQ5)
# Sequence (Q9QUQ5 whole entry, looked up): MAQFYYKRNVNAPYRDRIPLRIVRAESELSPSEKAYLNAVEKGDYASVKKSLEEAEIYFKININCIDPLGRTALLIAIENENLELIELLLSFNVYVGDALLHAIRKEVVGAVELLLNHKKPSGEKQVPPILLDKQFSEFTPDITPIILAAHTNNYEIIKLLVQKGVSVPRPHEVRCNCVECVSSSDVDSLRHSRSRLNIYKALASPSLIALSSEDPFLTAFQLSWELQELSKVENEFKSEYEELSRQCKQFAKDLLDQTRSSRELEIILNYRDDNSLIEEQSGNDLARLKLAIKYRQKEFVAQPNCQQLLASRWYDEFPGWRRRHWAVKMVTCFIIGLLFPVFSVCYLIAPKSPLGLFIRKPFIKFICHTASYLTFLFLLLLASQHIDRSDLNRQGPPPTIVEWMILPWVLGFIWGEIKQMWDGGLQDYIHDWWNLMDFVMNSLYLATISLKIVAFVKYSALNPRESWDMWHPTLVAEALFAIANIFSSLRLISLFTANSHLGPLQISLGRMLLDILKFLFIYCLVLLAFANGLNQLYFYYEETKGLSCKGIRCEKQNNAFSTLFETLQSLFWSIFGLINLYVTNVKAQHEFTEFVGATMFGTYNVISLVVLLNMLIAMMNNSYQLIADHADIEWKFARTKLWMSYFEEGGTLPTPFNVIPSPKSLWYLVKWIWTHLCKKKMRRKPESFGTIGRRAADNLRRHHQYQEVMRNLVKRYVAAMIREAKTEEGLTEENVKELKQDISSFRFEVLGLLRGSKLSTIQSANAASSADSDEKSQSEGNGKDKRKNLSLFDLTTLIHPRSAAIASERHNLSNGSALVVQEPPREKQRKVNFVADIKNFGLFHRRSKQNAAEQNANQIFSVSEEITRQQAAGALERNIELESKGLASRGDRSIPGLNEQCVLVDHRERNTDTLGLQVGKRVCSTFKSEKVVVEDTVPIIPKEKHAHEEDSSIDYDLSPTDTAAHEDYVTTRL
# test.name: potentiation of DAMGO-evoked TRPC4 calcium signal – cell-based, HEK293 TRPC4/mu-opioid, Fluo-4 calcium, EC20 DAMGO, dose response (AID 434941);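 further: calcium entry triggered by an EC20 dose of DAMGO at the co-expressed mu-opioid receptor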
# condition.details: HEK293 TRPC4/mu-opioid cells, Fluo-4 calcium fluorescence; series mostly up to 20 µM
Results with a measured potency or affinity are listed apart. Activity calls are given as the source filed them.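 The calls were made as follows: active = earlier screen potentiator hit that boosts the TRPC4 ion channel at some dose, with a dose response; inactive = no potentiation, no dose response, or not a prior hit.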
recorded.endpoint: outcome

Completed entries (count: 6):
CCCCCn1c2c(c(=N)c3ccccc31)CCC2 ... inactive
CCCCc1nnc(NC(=O)C2CCN(c3ncnc4sc(C)c(C)c34)CC2)s1 ... inactive
CC(NC(=O)c1ccccc1NC(=O)CN1CCc2ccccc2C1)c1ccccc1 (stereo unspecified) ... inactive
Cc1cccc2cc(CN(Cc3nnnn3Cc3ccccc3)C3CCCC3)c(=O)[nH]c12 ... inactive
CC(Nc1nc(N2CCCC2)nc2ccccc12)c1ccccc1 (stereo unspecified) ... inactive
CC(C)C(=O)N1CCN(c2ccccc2NC(=O)c2ccco2)CC1 ... inactive

### Prompt Please give the documented outcome of "Cc1nc(Cl)c(Cl)n1CCOc1ccccc1"
### Response inactive

### Prompt Consider the compound O=C(CC1C(=O)NCCN1Cc1ccccc1C(F)(F)F)NCCc1ccccn1 (stereo unspecified) . State its measured outcome.
### Response inactive

### Prompt Please give the documented outcome of COc1ccc(/C=N/NC(=O)c2ccc(F)cc2)cc1CN1CCc2cc(OC)c(OC)cc2C1C (stereo unspecified)
### Response inactive

### Prompt Identify outcome associated with the compound "CN(C)CCCNc1c2c(nc3cc(-c4cccc(F)c4)nn13)CCC2"
### Response inactive

### Prompt Indicate its recorded outcome; the compound in question is "O=C(NC1CC1)c1ccc2c(c1)N(Cc1ccc(Cl)cc1)CCS2"
### Response inactive

----------
# Tested on: TRPC4 (transient receptor potential cation channel C4 beta), mouse
# test.name: potentiation of DAMGO EC20 TRPC4 response – cell-based, second round, Fluo-4, HEK293 TRPC4beta/mu-opioid, 1 µM, confirmation (AID 2554)
# condition.details: DAMGO EC20, Fluo-4 calcium flux, at 1 µM
Activity calls are given as the source filed them.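 How the source made its calls: active means primary screen hit whose fluorescence ratio, in both repeats, exceeds the weak agonist control mean by 3 SD; inactive means the rest.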
API: response.call in 1 (yes) (active), 0 (no) (inactive)

Sample answers from the record:
CN(C)C(CNC(=O)c1cccc(C(F)(F)F)c1)c1ccco1 (stereo unspecified) ... 0 (no)
COc1ccc(CCN(C)C(=O)c2cc(S(=O)(=O)N3CCCCC3)ccc2Cl)cc1OC ... 0 (no)
CCOc1ccccc1N(CC(=O)N1CCOCC1)S(=O)(=O)c1ccc(SC)cc1 ... 0 (no)
CCN(CC)CCCNC(=S)N1CCN(c2nc3ccccc3n2CC)CC1 ... 0 (no)
CCOc1ccc2nc(N3CCCC(C(=O)NCC4CCCO4)C3)sc2c1 (stereo unspecified) ... 0 (no)

### Prompt Outcome? "CCOC(=O)c1cnc2ccc(Cl)cc2c1NCCN(C)C"
### Response 0 (no)

### Prompt Called result for "Cc1cc(C)nc(Nc2nc(=O)c3ccccc3s2)n1"
### Response 1 (yes)

### Prompt Dear colleague, could you share the recorded outcome for "COc1cc(/C=C2/SC(=O)NC2=O)ccc1OCc1ccccc1" when you have a moment?
### Response 0 (no)

### Prompt Kindly provide the recorded test outcome for the following compound: "Cc1ccc(NC(=O)c2cc(N3C(=O)C=CC3=O)ccc2N2CCOCC2)cc1Cl"
### Response 0 (no)

### Prompt In this assay, the call recorded for CCN1CCCC1CNCc1ccc(Cl)cc1Cl (stereo unspecified) was what?
### Response 1 (yes)

### Prompt Hey, what did the test say about "CN(Cc1ccccc1)Cc1nc2c(c(=O)n(C)c(=O)n2C)n1CCCc1ccccc1" ?
### Response 0 (no)

### Prompt Just curious, what result did "Fc1ccc(Nc2ncnc3sc4c(c23)CCC4)cc1" get here?
### Response 1 (yes)

### Prompt Recorded test call requested for "O=C(O)c1ccc(N2CCN(C(c3ccccc3)c3ccccc3)CC2)c([N+](=O)[O-])c1"
### Response 0 (no)
